Reference source: paper PMC1142346

# TESTED_ON: BLM642-1290 WT (Homo sapiens, UniProt P54132 642-1290)
# Sequence (P54132 642-1290): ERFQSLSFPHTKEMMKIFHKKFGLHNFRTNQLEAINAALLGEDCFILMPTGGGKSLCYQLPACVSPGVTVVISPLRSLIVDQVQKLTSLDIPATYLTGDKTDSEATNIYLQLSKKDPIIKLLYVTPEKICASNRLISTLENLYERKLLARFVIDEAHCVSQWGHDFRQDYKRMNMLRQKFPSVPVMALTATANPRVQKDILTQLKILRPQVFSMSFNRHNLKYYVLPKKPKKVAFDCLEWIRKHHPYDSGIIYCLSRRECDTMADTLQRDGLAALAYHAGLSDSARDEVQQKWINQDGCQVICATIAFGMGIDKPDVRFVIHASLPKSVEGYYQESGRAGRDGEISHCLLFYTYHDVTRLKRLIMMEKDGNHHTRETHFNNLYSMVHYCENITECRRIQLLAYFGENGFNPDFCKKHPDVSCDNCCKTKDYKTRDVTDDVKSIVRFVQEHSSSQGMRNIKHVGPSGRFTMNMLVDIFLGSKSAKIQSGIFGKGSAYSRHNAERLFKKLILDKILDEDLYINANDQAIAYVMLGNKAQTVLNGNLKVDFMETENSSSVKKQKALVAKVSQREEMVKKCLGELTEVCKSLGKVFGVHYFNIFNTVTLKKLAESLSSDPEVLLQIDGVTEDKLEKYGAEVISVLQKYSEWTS
# EXPERIMENT_SUMMARY: fluorescence anisotropy
READOUT_LABEL: pKd
Answers are plain numbers, as −log10 of the molar value.

Need pKd of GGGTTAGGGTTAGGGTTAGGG (structured_DNA) [F21 G4 DNA] , thanks.
8.34
